Where these numbers come from: paper PMC10287910

system: ParA2 K124Q (Vibrio cholerae); experiment: EMSA
reportedEndpoint: Kd (nM)

• CGAGGTCGACGGTATCGATAAGCTTGATATCGAATTCCTGCAGCCCGGGGGATCCACTAGTTCTAGAGC (double strand) [Cy3-69 bp nsDNA] = 138
